Hey, just so you know, these numbers are from paper PMC12207590.

biological target: MATE1 (Homo sapiens); test: Uptake ratio in MATE1-overexpressing HEK293 cells vs empty vector (2.5 μM, 1 min, HPLC-MS/MS); type: cell-based; settings: uptake ratio MATE1-overexpressing vs empty-vector HEK293 cells, 2.5 μM, 1 min; mean
Sequence (Q96FL8 whole entry): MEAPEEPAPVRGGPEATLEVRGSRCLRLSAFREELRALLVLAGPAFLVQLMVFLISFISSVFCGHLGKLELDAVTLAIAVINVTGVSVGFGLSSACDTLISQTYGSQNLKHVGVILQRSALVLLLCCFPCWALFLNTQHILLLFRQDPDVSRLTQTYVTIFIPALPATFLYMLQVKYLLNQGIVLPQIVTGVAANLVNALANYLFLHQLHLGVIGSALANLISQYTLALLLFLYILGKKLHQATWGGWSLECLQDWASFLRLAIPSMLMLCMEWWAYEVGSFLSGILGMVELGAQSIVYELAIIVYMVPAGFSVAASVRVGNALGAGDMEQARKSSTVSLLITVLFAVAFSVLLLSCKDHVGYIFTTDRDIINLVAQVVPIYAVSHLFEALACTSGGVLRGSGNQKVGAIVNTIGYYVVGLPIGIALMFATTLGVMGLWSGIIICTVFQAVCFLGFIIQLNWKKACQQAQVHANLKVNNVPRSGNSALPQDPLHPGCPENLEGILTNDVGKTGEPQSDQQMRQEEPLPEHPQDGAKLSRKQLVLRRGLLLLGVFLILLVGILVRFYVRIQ
Param threshold (2) applies to MATE1; output condition met when value >= threshold, condition not met when value < threshold.

[
  {
    "Molecule": "C[N+]1(C)CCC[C@H]1C(=O)[O-] [Stachydrine]",
    "Class assignment": "condition not met"
  },
  {
    "Molecule": "CC(C)(C)NCC(O)c1ccc(O)c(CO)c1 [Salbutamol (S), Salbutamol]",
    "Class assignment": "condition met"
  },
  {
    "Molecule": "CCOc1ccccc1OCCN[C@H](C)Cc1ccc(OC)c(S(N)(=O)=O)c1",
    "Class assignment": "condition not met"
  },
  {
    "Molecule": "CC(C)(C)NCC(O)c1cc(O)cc(O)c1 (stereo not shown)",
    "Class assignment": "condition met"
  },
  {
    "Molecule": "O=C(NCCNCC(O)COc1ccc(O)cc1)N1CCOCC1 (stereo not shown)",
    "Class assignment": "condition met"
  },
  {
    "Molecule": "Cc1ncc(C[n+]2csc(CCOP(=O)(O)O)c2C)c(N)n1 [Thiamine monophosphate]",
    "Class assignment": "condition not met"
  }
]

Inquiry: Check the entry CNCC(=O)O : does MATE1 equal or exceed 2?
Reply text: condition not met

Inquiry: Check the entry CN(C)CCc1c[nH]c2ccc(Cn3cncn3)cc12 : does MATE1 equal or exceed 2?
Reply text: condition met

Inquiry: Check the entry N#CC[C@H](C1CCCC1)n1cc(-c2ncnc3[nH]ccc23)cn1 : does MATE1 equal or exceed 2?
Reply text: condition not met

Inquiry: Check the entry NC(=O)[C@@H]1CCCN1C(=O)[C@H](Cc1cnc[nH]1)NC(=O)[C@@H]1CCC(=O)N1 : does MATE1 equal or exceed 2?
Reply text: condition not met
